Tested on: Plasmodium falciparum
methodDescription: Screen against P. falciparum Asexual Blood Stage (ABS), at 5uM
Assay type: functional, Dd2
reportedConditions: tested at 5 uM
Screen size: about 65,000 compounds; about 2,100 (3.2%) showed an effect of 50% or more. The median lay at about -52%. Shown is part of a subset that was picked to be rich in strong results.
measuredProperty: INHIBITION (%)

| compound | unitTag | endpointResult |
| --- | --- | --- |
| CC(=O)N[C@@H]1CN(C2CCN(c3cccc(C)c3C)CC2)C[C@H]1C(C)C | % | 57.7 |
| CCc1nc2c(c(NC3CCC3)n1)CCN(C(=O)CO)CC2 | % | -35.7 |
| Fc1ccc(C(NCc2nnc(-c3ccco3)o2)C2CCC2)cc1 (stereo unspecified) | % | -32.2 |
| Cn1cncc1CN1CCCC1c1cncc(Oc2ccc(F)cc2)n1 (stereo unspecified) | % | -32.7 |
| N#Cc1ccc(C(=O)N2CCn3cc(CN4CCCCC4)nc3C2)cc1 | % | -96.9 |
| COCC(=O)NCC1CCCN(Cc2cc3ccccc3[nH]2)C1 (stereo unspecified) | % | -18.1 |
| Cc1cc(CN2CCC(CNS(=O)(=O)c3c(C)noc3C)CC2)c(C)o1 | % | 28.4 |
| CC(=O)N[C@@H]1CN(C2CCN(c3cccc(Cl)c3)CC2)C[C@H]1C(C)C | % | -10.3 |
| CC(=O)N[C@@H]1CN(C2CCN(c3ccccc3F)CC2)C[C@H]1C(C)C | % | -24.8 |
| CNCC(=O)N1CCCC1c1cncc(Oc2ccc(F)cc2)n1 (stereo unspecified) | % | 69.8 |
| CC(=O)N1CCCC1c1cncc(Oc2ccc(F)cc2)n1 (stereo unspecified) | % | -118 |

====

System: Plasmodium falciparum
methodDescription: Screen against P. falciparum Asexual Blood Stage (ABS), at 5uM
Assay type: functional, Dd2
reportedConditions: tested at 5 uM
Among all 65,000 compounds or so, about 2,100 (3.2%) showed an effect of 50% or more. The median lay at about -52%. The sample as a whole holds a higher share of strong results than the screen did.

| compound | INHIBITION |
| --- | --- |
| O=C(c1c[nH]nn1)N1CCCC1C1CCCCC1 (stereo unspecified) | 51% |
| Cc1ncc(CN(C)CC(O)c2cccc(C(F)(F)F)c2)s1 (stereo unspecified) | 54.7% |
| Cc1ncc(CN(C)CC(O)c2ccc(OC(F)(F)F)cc2)s1 (stereo unspecified) | 64% |
| CC(C)CCN1C2(CCN(Cc3nccs3)C2)c2ccccc2S1(=O)=O (stereo unspecified) | -17.8% |
| O=c1[nH]c2nc(N3CCSCC3)ncc2c(=O)n1-c1ccc(F)cc1 | -26.3% |
| Cc1ccc(C(=O)Nc2ccc(S(=O)(=O)/N=C3\CCCN3C)cc2)s1 | -13.1% |
| COc1cccc2c1OCC(Cc1cc(C(=O)N3CCCC3)ccn1)C2 (stereo unspecified) | -9.28% |
| CCC(CN1CCCC1)NC(=O)Cc1c(C)[nH]c2cc(C)cc(C)c12 (stereo unspecified) | 61.6% |
| O=C(c1cnc2[nH]c(=O)[nH]c(=O)c2c1)N1CCCC1C1CCCCC1 (stereo unspecified) | 0.342% |
| Cc1cccc(C(=O)N2CCC[C@]3(C[C@@H](OCC4CC4)CO3)C2)n1 | -156% |
| Cc1nc(CN2CCC3(CC2)CC(=O)N(C)c2ccccc23)cs1 | -87.3% |

====

System: Plasmodium falciparum
methodDescription: Screen against P. falciparum Asexual Blood Stage (ABS), at 5uM
Assay type: functional, Dd2
reportedConditions: tested at 5 uM
Screen size: about 65,000 compounds; about 2,100 (3.2%) showed an effect of 50% or more. The median lay at about -52%. What follows is part of a selection rich in strong results, with near analogues and random picks from the rest.
Listing of entries alongside the reported INHIBITION.
measuredProperty: INHIBITION (%)

| compound | endpointResult |
| --- | --- |
| Cc1cc(C)n(CC(C)NCCN2CCc3ccccc32)n1 (stereo unspecified) | 54.7 |
| Cc1ccc(S(=O)(=O)N2Cc3c(CN(C)C)nn(C)c3C2)cc1 | 42.8 |
| CCc1ccc(S(=O)(=O)N2Cc3c(CN(C)C)nn(C)c3C2)cc1 | 63.9 |
| O=C(CCn1cccn1)N1CC[C@@H](c2ccc3ccccc3c2)[C@H](O)C1 | 15.7 |
| Cc1ncc(C(=O)N2CCCC2(C)C(=O)N2CCOCC2)c(C)n1 (stereo unspecified) | -32.2 |
| O=C(CCN1CCCC1)N1CC[C@@H](c2ccc3ccccc3c2)[C@H](O)C1 | 65.1 |

====

Test system: Plasmodium falciparum
methodDescription: Screen against P. falciparum Asexual Blood Stage (ABS), at 5uM
Type: functional, Dd2
reportedConditions: tested at 5 uM
Among all 65,000 compounds or so, about 2,100 (3.2%) showed an effect of 50% or more. The median lay at about -52%. The sample as a whole holds a higher share of strong results than the screen did.
measuredProperty: INHIBITION (%)

| compound | endpointResult |
| --- | --- |
| Cc1noc(C)c1CN1CCCC(CN(C(=O)OC(C)(C)C)C(C)C)C1 (configuration not stated) | 54.1 |
| O=C(Cn1cc(I)cn1)N1CCCCCC1 | -34.7 |
| N#Cc1cccnc1OC1CCN(S(=O)(=O)c2c(F)cccc2F)CC1 | -88.3 |
| Oc1ccc2oc3c(c2c1CN1CCOCC1)CCCC3 | 19.1 |
| COC[C@]1(O)CCN(C2CCN(c3ccc(OC)cc3)CC2)CC1(C)C | -57.6 |
| CN(C)[C@@H]1C[C@@H](CO)N(C(=O)Nc2cccc(F)c2F)C1 | -46.8 |
| COCCN1C(=O)CO[C@H]2CN(Cc3ccccc3Cl)C[C@@H]21 | -123 |
| CSc1ccc(C(C(=O)O)N2CCC(CO)CC2)cc1 (configuration not stated) | -79.3 |
| CCC1CN(Cc2c(O)ccc3oc4c(c23)CCCC4)CCO1 (configuration not stated) | 60 |
| CC(C)N(CC1CCCN(Cc2ccon2)C1)C(=O)OC(C)(C)C (configuration not stated) | -5.65 |
| COC[C@]1(O)CCN(C2CCN(c3ccc(F)c(F)c3)CC2)CC1(C)C | 63.1 |
| CN(CCc1ccncc1)CCc1nccs1 | -102 |

====

Test system: Plasmodium falciparum
methodDescription: Screen against P. falciparum Asexual Blood Stage (ABS), at 5uM
Type: functional, Dd2
reportedConditions: tested at 5 uM
About 2,100 (3.2%) of roughly 65,000 compounds showed an effect of 50% or more. The median lay at about -52%. The entries come from a sample that favours strong results as a whole.
measuredProperty: INHIBITION (%)

| compound | endpointResult |
| --- | --- |
| CC(C)c1ccc(CNC(C)c2ccc(S(C)(=O)=O)cc2)cc1 (stereo unspecified) | 53.6 |
| Cc1ccc(CN(CCN(C)C)Cc2ncc[nH]2)s1 | -73.3 |
| N[C@@H]1c2ccccc2C2(CCN(c3ncccc3C(F)(F)F)CC2)[C@H]1O | -6.42 |
| CNC(=O)CN1CCCC12CCN(C(=O)c1ccoc1)CC2 | 53.1 |
| CC(NCc1ccc(C(C)(C)C)cc1)c1ccc(S(C)(=O)=O)cc1 (stereo unspecified) | -7.37 |
| Cc1ccc(CN(CCN(C)C)Cc2nc3ccccc3[nH]2)s1 | 61.2 |

====

System: Plasmodium falciparum
methodDescription: Screen against P. falciparum Asexual Blood Stage (ABS), at 5uM
Assay type: functional, Dd2
reportedConditions: tested at 5 uM
In all, about 65,000 compounds went through this assay and about 2,100 (3.2%) showed an effect of 50% or more. The median lay at about -52%. Shown is part of a subset that was picked to be rich in strong results.
Listing of entries alongside the reported INHIBITION.
measuredProperty: INHIBITION (%)

| compound | measuredProperty | unitTag | endpointResult |
| --- | --- | --- | --- |
| O=C(NCCn1ccnc1)c1ccn(-c2cccc(F)c2)n1 | INHIBITION | % | -1.32 |
| Cc1cccnc1CC(C)Nc1nc(N)nc2c1CCNC2 (stereo not given) | INHIBITION | % | -92 |
| Cc1ccc(CN2CC[C@@H](O)[C@@H]2Cc2cnn(C)c2)o1 | INHIBITION | % | -75.8 |
| Cc1ccc(-c2nn(-c3cccc(F)c3)cc2CN(C)CCO)o1 | INHIBITION | % | 50.5 |
| c1cc(CN(CCCn2ccnc2)Cc2ccoc2)ccn1 | INHIBITION | % | -27 |
| Cc1ccc(CN(CCCn2ccnc2)Cc2c[nH]cn2)s1 | INHIBITION | % | 21.2 |
| Cc1cc(C)n(CC(C)Nc2nc(C)nc3c2CCNC3)n1 (stereo not given) | INHIBITION | % | 2.63 |
| CCOCC1CN(C(=O)C2CCOCC2)Cc2cnn(C)c21 (stereo not given) | INHIBITION | % | -57.8 |
| Cn1cc(C2CCCN2C(=O)CCCc2ccccn2)cn1 (stereo not given) | INHIBITION | % | -94.3 |
| CN(C)c1ccc(-c2cc(C(=O)O)cc(S(=O)(=O)NC3CC3)c2)cc1 | INHIBITION | % | 57.2 |
| Cc1nc(C)n(CC2CCCN2Cc2coc(-c3cccs3)n2)n1 (stereo not given) | INHIBITION | % | -63.6 |
| Cc1nc(C)n(CC2CCCCN2Cc2nc(-c3ccoc3)no2)n1 (stereo not given) | INHIBITION | % | -49.9 |
| CO[C@@H]1CCN(Cc2ccc(C)o2)[C@H]1Cc1ccccc1 | INHIBITION | % | -45.5 |
| Cc1nc(C)n(CC2CCCN2Cc2nc(-c3cccs3)no2)n1 (stereo not given) | INHIBITION | % | 23.3 |
| Cc1ccc(CN2CC[C@@H](O)[C@@H]2Cc2ccccc2)o1 | INHIBITION | % | 51.6 |
| Cc1oc(-c2cccc(F)c2F)nc1CN(C)CCO | INHIBITION | % | -82.7 |
| O=C(O)c1cc(-c2ccc3c(c2)OCO3)cc(S(=O)(=O)NC2CC2)c1 | INHIBITION | % | -33.6 |
| CCc1ccc(S(=O)(=O)NCC2CCN(c3cnccn3)CC2)s1 | INHIBITION | % | -103 |
| Cc1nc(NS(=O)(=O)c2cccc(F)c2C)no1 | INHIBITION | % | -25.8 |
| Cc1cccc(C)c1OCC(C)Nc1nc(N)nc2c1CCNC2 (stereo not given) | INHIBITION | % | 67 |
| CC(C)COc1cncc(N2CCCN(c3ncccn3)CC2)n1 | INHIBITION | % | -186 |
| COc1ccccc1CNC(=O)COc1c(C)n(C)ccc1=O | INHIBITION | % | -82.3 |
| COc1cc2c(cc1CNCc1cccnc1-n1cccn1)OC(C)C2 (stereo not given) | INHIBITION | % | 20.8 |
| CCc1cccc(N2CCC(NC(=O)C3CCC3)CC2)c1 | INHIBITION | % | -52.2 |
| OC1(CNCc2cnc(N3CCOCC3)nc2)CCCCC1 | INHIBITION | % | -74.5 |

Data credit: ChEMBL document CHEMBL4513216
